METHOD_NOTES: Protective index, ratio of TD50 for behavioural toxicity in ip dosed albino Sprague-Dawley rat to ED50 for anticonvulsant activity in ip dosed MES albino Sprague-Dawley rat model
Format: organism-based
CONDITION_SUMMARY: in vivo, read-out: Ratio TD50/ED50

>  <CHEMICAL_STRUCTURE>
COC[C@@H](NC(C)=O)C(=O)NCc1ccc(Oc2cccc(OC)c2)cc1

>  <selectivity ratio>
8

$$$$
>  <CHEMICAL_STRUCTURE>
COC[C@@H](NC(C)=O)C(=O)NCc1ccc(Oc2cccc(Cl)c2)cc1

>  <selectivity ratio>
8.3

$$$$
>  <CHEMICAL_STRUCTURE>
COC[C@@H](NC(C)=O)C(=O)NCc1ccc(Oc2cccc(OC(F)(F)F)c2)cc1

>  <selectivity ratio>
9.5

$$$$
>  <CHEMICAL_STRUCTURE>
COC[C@@H](NC(C)=O)C(=O)NCc1ccc(Oc2cccc(C)c2)cc1

>  <selectivity ratio>
12

$$$$
